TARGET: human Peripheral-type Benzodiazepine Receptor (PBR), TSPO (gene 706) (UniProt P30536)
Sequence (P30536 whole entry, looked up): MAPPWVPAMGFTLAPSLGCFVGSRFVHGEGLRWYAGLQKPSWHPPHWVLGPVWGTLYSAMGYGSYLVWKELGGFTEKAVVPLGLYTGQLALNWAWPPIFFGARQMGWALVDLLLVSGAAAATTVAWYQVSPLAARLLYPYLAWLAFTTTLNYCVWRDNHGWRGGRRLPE
ASSAY_NAME: NVS_MP_hPBR: NovaScreen (NVS) Membrane Protein Assay for human Peripheral-type Benzodiazepine Receptor (PBR) (AID 2283331);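 also: hits reduce radioligand binding relative to DMSO baseline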
Results filed as inconclusive are left out. Active and inactive are the calls of the source. The calls were made as follows: active = hit-call score of the fitted dose curve at least 0.9, where 1 is the maximum; inconclusive = response in the unintended direction; inactive = score below 0.9.
Pick from active, inactive when you respond.

Reference set, count: 4
INPUT_SMILES: CO/C=C(/C(=O)OC)c1ccccc1COc1cccc(C(F)(F)F)n1
QUALITATIVE_LABEL: active
//
INPUT_SMILES: Cc1ccccc1CO[C@@H]1C[C@@]2(C(C)C)CC[C@]1(C)O2
QUALITATIVE_LABEL: active
//
INPUT_SMILES: Cc1cc(O)ccc1Cl
QUALITATIVE_LABEL: active
//
INPUT_SMILES: CCC(C)(CC)c1cc(NC(=O)c2c(OC)cccc2OC)on1
QUALITATIVE_LABEL: inactive

Here's the next entry for you.
Task: Status in this test for `CCCCCCCCCC[N+](C)(C)CCCCCCCCCC` ?
Result: active

These measurements were taken from PubChem BioAssay (EPA / NIEHS).
